Biological target: MLKL (Homo sapiens)
Test: MLKL degradation assay in HepG2 cell line (western blot)
Assay type: cell-based
Parameters: endogenous in cells; host or cells: HepG2 or HaCaT
Settings: compound 10 μM; cell line not given
Protocol: MLKL degradation ability was evaluated in the following method. […] For protein preparation after incubation, cells were washed with 1×TBST, and 60 μL of RIPA lysis buffer containing Halt™ Protease and Phosphatase Inhibitor Cocktail was dispensed into each well. […] For protein quantification, after dispensing sample and BCA (0-4 mg/ml) in a 96 well plate, 100 μL of BCA was dispensed and reacted in a 37° C. incubator for 30 minutes. […]
Provide the reported Degradation assay (Degradation %) 10 μM of each item.
Numbers only; they are read as %.

// returns reported Degradation assay (Degradation %) 10 μM for input Nc1ncc(-c2cnn(C3CCN(C(=O)CCC4CCN(C(=O)CNc5cccc6nnn(C7CCC(=O)NC7=O)c(=O)c56)CC4)CC3)c2)nc1C(=O)O[C@@H](C(=O)Nc1ccc(F)cc1)c1ccccc1 (stereo partly drawn) 46.20

Query (compound): Nc1ncc(-c2cnn(C3CCN(CCCN4CC5CC4CN5C(=O)COc4ccc5c(c4)C(=O)N(C4CCC(=O)NC4=O)C5=O)CC3)c2)nc1C(=O)O[C@@H](C(=O)Nc1ccc(F)cc1)c1ccccc1 (stereo partly drawn) ; field requested: Degradation assay (Degradation %) 10 μM 92.96

GET /values?readout=Degradation assay (Degradation %) 10 μM&item= COc1ccc(C(=O)N2CCC(C(=O)N3CCC(CCN4CCC(n5cc(-c6cnc(N)c(C(=O)O[C@@H](C(=O)Nc7ccc(F)cc7)c7ccccc7)n6)cn5)CC4)CC3)CC2)cc1N1CCC(=O)NC1=O 86.64

====

Target sequence: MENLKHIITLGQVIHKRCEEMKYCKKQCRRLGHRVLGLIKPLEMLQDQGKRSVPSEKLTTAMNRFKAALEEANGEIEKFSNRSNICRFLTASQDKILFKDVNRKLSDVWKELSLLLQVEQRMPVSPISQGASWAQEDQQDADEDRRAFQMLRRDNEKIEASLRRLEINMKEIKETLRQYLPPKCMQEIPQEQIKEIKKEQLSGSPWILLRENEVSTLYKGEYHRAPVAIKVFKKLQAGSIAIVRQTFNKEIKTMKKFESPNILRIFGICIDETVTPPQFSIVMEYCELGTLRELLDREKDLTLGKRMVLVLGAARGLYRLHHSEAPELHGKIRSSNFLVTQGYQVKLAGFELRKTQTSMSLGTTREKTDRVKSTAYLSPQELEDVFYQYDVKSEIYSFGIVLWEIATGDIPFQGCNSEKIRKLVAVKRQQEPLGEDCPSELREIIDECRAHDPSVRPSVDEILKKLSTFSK
reported_metric: pKd
Please report pKd as the negative decimal logarithm of the molar concentration, giving only the number.

// query pKd value for entry Nc1ncc(-c2cnn(C3CCN(CCC4CCN(C(=O)COc5ccc6c(c5)C(=O)N(C5CCC(=O)NC5=O)C6=O)CC4)CC3)c2)cc1C(=O)OC(C(=O)Nc1ccc(F)cc1)c1ccccc1 (centres unmarked) 8.05

// lookup pKd for Nc1ncc(-c2cnn(C3CCN(CCCN4CCN(C(=O)c5ccc(C(=O)NC6CCC(=O)NC6=O)cc5)CC4)CC3)c2)nc1C(=O)O[C@@H](C(=O)Nc1ccc(F)cc1)c1ccccc1 (some centres unmarked) 9.02

Which pKd value is on record for COc1ccc(C(=O)N2CCC(C(=O)N3CCC(CN4CCC(n5cc(-c6cnc(N)c(C(=O)O[C@@H](C(=O)Nc7ccc(F)cc7)c7ccccc7)n6)cn5)CC4)CC3)CC2)cc1N1CCC(=O)NC1=O ? 8.85

Any idea what pKd was measured for Nc1ncc(-c2cnn(C3CCN(CCC4CCN(C(=O)c5cccc(C(=O)NC6CCC(=O)NC6=O)c5)CC4)CC3)c2)nc1C(=O)O[C@@H](C(=O)Nc1ccc(F)cc1)c1ccccc1 (some centres unmarked) ? 9.64

Please give the measured pKd for this compound: Nc1ncc(-c2cnn(C3CCN(C(=O)CCC4CCN(C(=O)C5CCN(c6ccc7nnn(C8CCC(=O)NC8=O)c(=O)c7c6)CC5)CC4)CC3)c2)nc1C(=O)O[C@@H](C(=O)Nc1ccc(F)cc1)c1ccccc1 (some centres unmarked) 8.51

Which pKd is listed for Cl.Nc1ncc(-c2cnn(C3CCNCC3)c2)nc1C(=O)N[C@@H](C(=O)Nc1ccc(F)cc1)c1ccccc1 [TDH-099, hydrochloride] ? 7.96

Quick one: pKd of Nc1ncc(-c2cnn(C3CCN(CCC4CCN(C(=O)COc5ccc6c(c5)C(=O)N(C5CCC(=O)NC5=O)C6=O)CC4)CC3)c2)nc1C(=O)O[C@@H](C(=O)Nc1ccc(F)cc1)c1ccccc1 (some centres unmarked) ? 8.89

Look at this compound and give its reported pKd. COc1ccc(C(=O)N2CCC3(CC2)CC(N2CCC(CCN4CCC(n5cc(-c6cnc(N)c(C(=O)O[C@@H](C(=O)Nc7ccc(F)cc7)c7ccccc7)n6)cn5)CC4)CC2)C3)cc1N1CCC(=O)NC1=O 9.64

Which pKd is reported for this compound? Nc1ncc(-c2ccc(N3CCN(CC4CCN(C(=O)COc5cccc6c5C(=O)N(C5CCC(=O)NC5=O)C6=O)CC4)CC3)nc2)nc1C(=O)OC(C(=O)Nc1ccc(F)cc1)c1ccccc1 (centres unmarked) 7.39

So what's the measured pKd for this one? Nc1ncc(-c2cnn(C3CCN(CCOC4CCN(C(=O)CCc5cccc6c5CN(C5CCC(=O)NC5=O)C6=O)CC4)CC3)c2)nc1C(=O)O[C@@H](C(=O)Nc1ccc(F)cc1)c1ccccc1 (some centres unmarked) 8.80

====

target: UniProtKB Q8NB16; assay: MLKL degradation assay in HepG2 cell line (western blot); format: cell-based; parameters: endogenous in cells; host or cells: HepG2 or HaCaT; settings: compound 10 μM; cell line not given
Please respond with reported Degradation assay (Degradation %) 10 μM for every item in the list.
The response must be a number in % with no trailing unit.

Using the record for Nc1ncc(-c2cnn(C3CCN(CCOCCOCCNC(=O)CNc4cccc5c4C(=O)N(C4CCC(=O)NC4=O)C5=O)CC3)c2)nc1C(=O)N[C@@H](C(=O)Nc1ccc(F)cc1)c1ccccc1 (some centres unmarked) [TDH-217] , report its Degradation assay (Degradation %) 10 μM. 31.11

What Degradation assay (Degradation %) 10 μM value was documented for this compound, Nc1ncc(-c2cnn([C@H]3CCN(CCOCCOCCNC(=O)COc4ccc5c(c4)C(=O)N(C4CCC(=O)NC4=O)C5=O)C3)c2)nc1C(=O)OC(C(=O)Nc1ccc(F)cc1)c1ccccc1 (some centres unmarked) [TDH-266] ? 40.08

I am curious: what Degradation assay (Degradation %) 10 μM value has been reported for Nc1ncc(-c2cnn(C3CCN(C(=O)c4cn(C5CCN(C(=O)C6CCN(c7cccc8c7C(=O)N(C7CCC(=O)NC7=O)C8=O)CC6)CC5)cn4)CC3)c2)nc1C(=O)O[C@@H](C(=O)Nc1ccc(F)cc1)c1ccccc1 (some centres unmarked) [TDH-362] ? 69.78

For Nc1ncc(-c2cnn(C3CCN(C(=O)COCCOCCNC(=O)C4CN(c5ccc6c(c5)C(=O)N(C5CCC(=O)NC5=O)C6=O)C4)CC3)c2)nc1C(=O)O[C@@H](C(=O)Nc1ccc(F)cc1)c1ccccc1 (some centres unmarked) [TDH-193] , what is its reported Degradation assay (Degradation %) 10 μM? 11.22

# input compound: Nc1ncc(-c2cnn(C3CCN(C(=O)CCC4CCN(C(=O)C5CCN(c6cccc7c6C(=O)N(C6CCC(=O)NC6=O)C7=O)CC5)CC4)CC3)c2)nc1C(=O)O[C@@H](C(=O)Nc1ccc(F)cc1)c1ccccc1 (some centres unmarked) [TDH-417] ; wanted: its Degradation assay (Degradation %) 10 μM 63.85

====

What Degradation assay (Degradation %) 10 μM was measured for each of the following?
molecular target: MLKL (Homo sapiens, UniProt Q8NB16); assay: MLKL degradation assay in HepG2 cell line (western blot); type: cell-based; set-up: endogenous in cells; host or cells: HepG2 or HaCaT; settings: compound 10 μM; cell line not given
Return type: number; implicit unit %.

Reported Degradation assay (Degradation %) 10 μM, compound Nc1ncc(-c2cnn(C3CCN(CC4CCN(CC(=O)NCCNc5cccc6c5C(=O)N(C5CCC(=O)NC5=O)C6=O)CC4)CC3)c2)nc1C(=O)OC(C(=O)Nc1ccc(F)cc1)c1ccccc1 (centres unmarked) : ____ 54.89

Which Degradation assay (Degradation %) 10 μM reading was recorded for the compound Nc1ncc(-c2cnn([C@@H]3CCN(CC4CCN(C(=O)COc5ccc6c(c5)C(=O)N(C5CCC(=O)NC5=O)C6=O)CC4)C3)c2)nc1C(=O)OC(C(=O)Nc1ccc(F)cc1)c1ccccc1 (some centres unmarked) ? 89.16

Tell me the measured Degradation assay (Degradation %) 10 μM of COc1ccc(C(=O)N2CCC(CN3CCC(CN4CCC(n5cc(-c6cnc(N)c(C(=O)O[C@@H](C(=O)Nc7ccc(F)cc7)c7ccccc7)n6)cn5)CC4)CC3)CC2)cc1N1CCC(=O)NC1=O , please. 90.67

Would you kindly share the measured Degradation assay (Degradation %) 10 μM for Nc1ncc(-c2cnn(C3CCN(CCOCCOCCOCCNC(=O)C4CCN(c5cccc6c5C(=O)N(C5CCC(=O)NC5=O)C6=O)CC4)CC3)c2)nc1C(=O)O[C@@H](C(=O)Nc1ccc(F)cc1)c1ccccc1 (some centres unmarked) ? 78.56

Look up Degradation assay (Degradation %) 10 μM for this compound: Nc1ncc(-c2cnn(C3CCN(C(=O)CC4CCN(C(=O)C5CCN(c6ccc7c(c6)C(=O)N(C6CCC(=O)NC6=O)C7=O)CC5)CC4)CC3)c2)nc1C(=O)O[C@@H](C(=O)Nc1ccc(F)cc1)c1ccccc1 (some centres unmarked) 54.03

Values were extracted from patent US20240252488A1.
